tested on: Escherichia coli; experiment: Competitive inhibition of Escherichia coli rhomboid GlpG at 100 uM preincubated for 30 mins followed by FP-Rh addition measured after 1 hr by gel-based ABPP method
The source made the active and inactive calls. The calls are words filed in the database; no cut-off is given here.
Labels: active, inactive

INSERT INTO results (input_smiles, group_label) VALUES
  ('C#CCCCc1nc2cccc(Cl)c2c(=O)o1', 'active'),
  ('C#CCOc1nc2cccc(Cl)c2c(=O)o1', 'active'),
  ('C#CCCOc1oc(=O)c2cc(N)ccc2c1Cl', 'active'),
  ('Cc1cccc2nc(OCCc3ccccc3)oc(=O)c12', 'inactive'),
  ('C#CCCCc1nc2cccc(C)c2c(=O)o1', 'active'),
  ('O=c1oc(OCCc2ccccc2)nc2cccc(Cl)c12', 'inactive');

* * *

test: Competitive inhibition of Escherichia coli rhomboid GlpG preincubated for 30 mins followed by FP-Rh addition measured after 1 hr by gel-based ABPP method
pIC50: −log10 of the molar value.
// pIC50 lookup, one value per entry
PROPERTY_LABEL: pIC50

INSERT INTO results (input_smiles, property_label, measured_number) VALUES
  ('C#CCOc1nc2cccc(Cl)c2c(=O)o1', 'pIC50', 5.77),
  ('O=c1oc(OCc2ccccc2)nc2c(Cl)cccc12', 'pIC50', 4.20),
  ('O=c1oc(OCc2ccccc2)nc2cc3ccccc3cc12', 'pIC50', 5.62),
  ('CCOc1nc2cccc(Cl)c2c(=O)o1', 'pIC50', 5.66),
  ('O=c1oc(OCc2ccccc2)nc2cccc(Cl)c12', 'pIC50', 5.92),
  ('O=c1oc(OCc2ccccc2)nc2ccccc12', 'pIC50', 5.60),
  ('Cc1cccc2nc(OCc3ccccc3)oc(=O)c12', 'pIC50', 6.00);

// provenance: ChEMBL document CHEMBL4219119
